# assay system: BTK (Homo sapiens)
# Construct: High control=Cell group with added DMSO and without compound, indicating microplate readings without BTK degradation; endogenous in cells; host or cells: TMD-8
# Sequence (Q06187 whole entry): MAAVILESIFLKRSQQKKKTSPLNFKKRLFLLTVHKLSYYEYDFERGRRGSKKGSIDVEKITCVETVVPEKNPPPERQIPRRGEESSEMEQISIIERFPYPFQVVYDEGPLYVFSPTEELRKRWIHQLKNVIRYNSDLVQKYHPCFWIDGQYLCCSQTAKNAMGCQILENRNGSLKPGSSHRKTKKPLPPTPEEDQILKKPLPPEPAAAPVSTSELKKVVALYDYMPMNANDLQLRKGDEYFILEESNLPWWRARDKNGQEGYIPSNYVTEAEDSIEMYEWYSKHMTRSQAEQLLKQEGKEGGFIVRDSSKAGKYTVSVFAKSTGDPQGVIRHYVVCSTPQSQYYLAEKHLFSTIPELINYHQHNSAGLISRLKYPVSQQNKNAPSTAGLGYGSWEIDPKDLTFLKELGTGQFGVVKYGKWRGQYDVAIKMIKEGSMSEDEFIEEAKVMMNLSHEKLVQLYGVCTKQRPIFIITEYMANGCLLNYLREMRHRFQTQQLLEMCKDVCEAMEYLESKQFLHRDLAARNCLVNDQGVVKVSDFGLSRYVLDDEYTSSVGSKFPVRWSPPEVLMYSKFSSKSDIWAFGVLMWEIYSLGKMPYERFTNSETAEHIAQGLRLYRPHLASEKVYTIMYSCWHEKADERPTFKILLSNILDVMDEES
# assay overview: BTK degradation in TMD-8 cells (HTRF assay)
# Type: cell-based
# measurement setup: 6 h treatment, IC50 (DC50) of BTK degradation
# label = class 1 if DC50 < 2 nM else class 0

[[record]]
compound = "Cc1cc(-c2ncnc3[nH]c4cc(N5CCN(C6CC(c7ccc([C@H]8CCC(=O)NC8=O)cc7)C6)CC5)ccc4c23)c(F)cc1[C@@H](C)NC(=O)c1nc(C(C)(C)C)no1 (some centres unmarked)"
assay_system = "BTK (Homo sapiens)"
class_assignment = "class 0"

[[record]]
compound = "Cc1cc(-c2ncnc3[nH]c4cc(N5CCC6(CC5)CCN([C@H]5C[C@H](c7ccc([C@H]8CCC(=O)NC8=O)cc7)C5)CC6)ccc4c23)ccc1[C@@H](C)NC(=O)c1nc(C(C)(C)C)no1"
assay_system = "BTK (Homo sapiens)"
class_assignment = "class 0"

[[record]]
compound = "COc1cc2c(cc1N1CCN(Cc3ccc4c(c3)n(C)c(=O)n4C3CCC(=O)NC3=O)CC1)[nH]c1ncnc(-c3ccc([C@@H](C)NC(=O)c4nc(C(C)(C)C)no4)c(C)c3F)c12 (some centres unmarked)"
assay_system = "BTK (Homo sapiens)"
class_assignment = "class 0"

[[record]]
compound = "Cc1cc(-c2ncnc3[nH]c4cc(N5CCN(C6CC(c7ccc([C@@H]8CCC(=O)NC8=O)cc7)C6)CC5)ccc4c23)c(F)cc1[C@@H](C)NC(=O)c1nc(C(C)(C)C)no1 (some centres unmarked)"
assay_system = "BTK (Homo sapiens)"
class_assignment = "class 1"

[[record]]
compound = "COc1cc2c(cc1N1CCN(C3CCC(c4ccc(C5CCC(=O)NC5=O)cc4)CC3)CC1)[nH]c1ncnc(-c3ccc([C@@H](C)NC(=O)c4nc(C(C)(C)C)no4)c(C)c3)c12 (some centres unmarked)"
assay_system = "BTK (Homo sapiens)"
class_assignment = "class 1"


----------
# assay system: BTK (Homo sapiens)
# Construct: High control=Cell group with added DMSO and without compound, indicating microplate readings without BTK degradation; endogenous in cells; host or cells: TMD-8
# assay overview: BTK degradation in TMD-8 cells (HTRF assay)
# Format: cell-based
# measurement setup: 6 h treatment, IC50 (DC50) of BTK degradation
recorded metric: DC50 (nM)

[[record]]
molecule = "Cc1cc(-c2ncnc3[nH]c4cc(CCN5CCN(C6CN(c7ccc(N8CCC(=O)NC8=O)cc7)C6)CC5)ccc4c23)ccc1[C@@H](C)NC(=O)c1nc(C(C)(C)C)no1"
recorded_metric = "DC50"
value_measured = 0.512

[[record]]
molecule = "Cc1cc(-c2ncnc3[nH]c4cc(CCN5CCN(c6ccc(N7CCC(=O)NC7=O)cc6)CC5)ccc4c23)ccc1[C@@H](C)NC(=O)c1nc(C(C)(C)C)no1"
recorded_metric = "DC50"
value_measured = 0.324

[[record]]
molecule = "Cc1c([C@@H](C)NC(=O)c2noc(C(C)(C)C)n2)ccc(-c2ncnc3[nH]c4cc(N5CCN(C6CC(c7ccc(N8CCC(=O)NC8=O)cc7)C6)CC5)ccc4c23)c1F (some centres unmarked)"
recorded_metric = "DC50"
value_measured = 3.67

[[record]]
molecule = "Cc1c([C@@H](C)NC(=O)c2noc(C(C)(C)C)n2)ccc(-c2ncnc3[nH]c4cc(N5CCN(C6CC(c7ccc([C@@H]8CCC(=O)NC8=O)cc7)C6)CC5)ccc4c23)c1F (some centres unmarked)"
recorded_metric = "DC50"
value_measured = 1.43

[[record]]
molecule = "Cc1cc(-c2ncnc3[nH]c4cc(C5CCN(CC6CCN(c7ccc(N8CCC(=O)NC8=O)cc7)CC6)C5)ccc4c23)ccc1[C@@H](C)NC(=O)c1nc(C(C)(C)C)no1 (some centres unmarked)"
recorded_metric = "DC50"
value_measured = 0.613


Cited source: patent US20240366770A1
